Tested on: MDA-MB-231 breast
Test: NCI-60 one-dose screen, 48 h
Conditions: 10 µM unless noted
Description: Cells are grown in 96 well plates and exposed to the test compound for 48 hours. Compounds are tested at a single concentration, which is 10^-5 M for most compounds. The reported endpoint is percent growth (GI% or GIPRCNT), where numbers from 0 - 100% represent growth inhibition, and numbers from -100% - 0 represent cell death. For example, a value of 40 represents 60% growth inhibition. A value of 0 means no net growth occurred over the course of the experiment. […]
This is part of a sample that, as a whole, favours compounds with a hit. Of some 83,000 tested, about 20% had one in any assay. Calls of active or inactive are those of the source. The calls were made as follows: active = growth percent below 10; inactive = the rest.
Outcome (select one): active, inactive

COc1cccc(/C=C2/C(=O)N(Cc3ccco3)SC2=S)c1OC | inactive

## Task What did this assay record as the result for "O=C(C[C@@H](C(=O)NCc1cccc(C(F)(F)F)c1)N1C(=O)[C@@H](N2C(=O)OC[C@@H]2c2ccccc2)[C@H]1/C=C/c1ccccc1)NC1CCN(Cc2ccccc2)CC1" ?
## Result inactive

## Task What did this assay record as the result for "COc1ccc(S(=O)(=O)NCCNc2nccc(-c3c(-c4cccc(N)c4)nc4sccn34)n2)cc1" ?
## Result inactive

## Task What did this assay record as the result for "COc1ncc(-c2ccc3ncnc(Nc4cccc(Cl)c4)c3c2)cc1NS(C)(=O)=O" ?
## Result inactive

## Task What did this assay record as the result for "Nc1cc(-c2nc3sccn3c2-c2ccnc(NCCCNS(=O)(=O)c3ccc(F)cc3)n2)ccc1F" ?
## Result inactive

## Task What did this assay record as the result for "CC(=O)C1=C(O)C=C2Oc3c(C(=O)/C=C/c4cc(Cl)cc(Cl)c4)c(O)c(C)c(O)c3[C@]2(C)C1=O" ?
## Result active

## Task What did this assay record as the result for "Cc1cc2cc3cc(C)c(N(C)C)cc3nc2cc1N(C)C" ?
## Result inactive

## Task What did this assay record as the result for CCCCCCCCCCCCCC(=O)C(C)N (stereo not given) ?
## Result active

## Task What did this assay record as the result for "CN1CCN(c2ccc3nc(-c4ccc5nc(-c6ccc(OCCC(C)(C)C)cc6)[nH]c5c4)[nH]c3c2)CC1" ?
## Result active

## Task What did this assay record as the result for "Cn1cc(-c2csc(-c3cn(C)c4ncccc34)n2)c2ccccc21" ?
## Result inactive
